Test system: COLO 205 colon
Assay: NCI tumour cell line growth inhibition, 48 h
Recorded TGI values for a group of molecules are listed next.

Known results for molecules:
In: Give me measured TGI, please, for this molecule: `CCN(CC)C(=S)SNc1ccc(S(N)(=O)=O)cc1`
Out: > 100 µM

In: Give me measured TGI, please, for this molecule: `CCOC(=O)C[C@@H](C)[C@]1(C(=O)OC)CCCC1=O`
Out: > 84.2 µM

In: Give me measured TGI, please, for this molecule: `Cc1nc2ccccn2c1NC(=O)NNC(=S)Nc1ccc(Br)cc1`
Out: 84.5 µM

In: Give me measured TGI, please, for this molecule: CNC1C(O)C(NC)C2OC3(O)C(=O)CC(C)OC3OC2C1O (stereo unspecified)
Out: > 100 µM

In: Give me measured TGI, please, for this molecule: `CCn1ncc2c1nc(-c1ccccc1)c[n+]2[O-]`
Out: > 100 µM

In: Give me measured TGI, please, for this molecule: COc1ccc(CC2c3cc(OC)c(OC)c(OC)c3CC[N+]2(C)C)cc1Oc1ccc(CC2c3cc4c(c(OC)c3CC[N+]2(C)C)OCO4)cc1 (stereo unspecified)
Out: > 100 µM

In: Give me measured TGI, please, for this molecule: `Cc1cc2nc3c(C#N)c(-c4ccccc4)/c(=C\Nc4ccc(Cl)cc4)c(=O)n3c2cc1C`
Out: > 100 µM

In: Give me measured TGI, please, for this molecule: `CC(C)OC(=O)Nc1cccc(Cl)c1`
Out: > 100 µM

---
In: Give me measured TGI, please, for this molecule: `N=c1oc2c(Br)cc(Br)cc2cc1C(=O)Nc1ccccn1`
Out: > 100 µM

In: Give me measured TGI, please, for this molecule: `O=c1[nH]cc(/C=N\Nc2ccccc2)c(=O)[nH]1`
Out: > 100 µM

In: Give me measured TGI, please, for this molecule: C=C[C@]1(O)CCC[C@]2(C)C(=O)CCC12C (stereo partly specified)
Out: > 100 µM
